Target: Nav 1.7 (Homo sapiens (Human), UniProt Q15858)
Sequence (Q15858 whole entry): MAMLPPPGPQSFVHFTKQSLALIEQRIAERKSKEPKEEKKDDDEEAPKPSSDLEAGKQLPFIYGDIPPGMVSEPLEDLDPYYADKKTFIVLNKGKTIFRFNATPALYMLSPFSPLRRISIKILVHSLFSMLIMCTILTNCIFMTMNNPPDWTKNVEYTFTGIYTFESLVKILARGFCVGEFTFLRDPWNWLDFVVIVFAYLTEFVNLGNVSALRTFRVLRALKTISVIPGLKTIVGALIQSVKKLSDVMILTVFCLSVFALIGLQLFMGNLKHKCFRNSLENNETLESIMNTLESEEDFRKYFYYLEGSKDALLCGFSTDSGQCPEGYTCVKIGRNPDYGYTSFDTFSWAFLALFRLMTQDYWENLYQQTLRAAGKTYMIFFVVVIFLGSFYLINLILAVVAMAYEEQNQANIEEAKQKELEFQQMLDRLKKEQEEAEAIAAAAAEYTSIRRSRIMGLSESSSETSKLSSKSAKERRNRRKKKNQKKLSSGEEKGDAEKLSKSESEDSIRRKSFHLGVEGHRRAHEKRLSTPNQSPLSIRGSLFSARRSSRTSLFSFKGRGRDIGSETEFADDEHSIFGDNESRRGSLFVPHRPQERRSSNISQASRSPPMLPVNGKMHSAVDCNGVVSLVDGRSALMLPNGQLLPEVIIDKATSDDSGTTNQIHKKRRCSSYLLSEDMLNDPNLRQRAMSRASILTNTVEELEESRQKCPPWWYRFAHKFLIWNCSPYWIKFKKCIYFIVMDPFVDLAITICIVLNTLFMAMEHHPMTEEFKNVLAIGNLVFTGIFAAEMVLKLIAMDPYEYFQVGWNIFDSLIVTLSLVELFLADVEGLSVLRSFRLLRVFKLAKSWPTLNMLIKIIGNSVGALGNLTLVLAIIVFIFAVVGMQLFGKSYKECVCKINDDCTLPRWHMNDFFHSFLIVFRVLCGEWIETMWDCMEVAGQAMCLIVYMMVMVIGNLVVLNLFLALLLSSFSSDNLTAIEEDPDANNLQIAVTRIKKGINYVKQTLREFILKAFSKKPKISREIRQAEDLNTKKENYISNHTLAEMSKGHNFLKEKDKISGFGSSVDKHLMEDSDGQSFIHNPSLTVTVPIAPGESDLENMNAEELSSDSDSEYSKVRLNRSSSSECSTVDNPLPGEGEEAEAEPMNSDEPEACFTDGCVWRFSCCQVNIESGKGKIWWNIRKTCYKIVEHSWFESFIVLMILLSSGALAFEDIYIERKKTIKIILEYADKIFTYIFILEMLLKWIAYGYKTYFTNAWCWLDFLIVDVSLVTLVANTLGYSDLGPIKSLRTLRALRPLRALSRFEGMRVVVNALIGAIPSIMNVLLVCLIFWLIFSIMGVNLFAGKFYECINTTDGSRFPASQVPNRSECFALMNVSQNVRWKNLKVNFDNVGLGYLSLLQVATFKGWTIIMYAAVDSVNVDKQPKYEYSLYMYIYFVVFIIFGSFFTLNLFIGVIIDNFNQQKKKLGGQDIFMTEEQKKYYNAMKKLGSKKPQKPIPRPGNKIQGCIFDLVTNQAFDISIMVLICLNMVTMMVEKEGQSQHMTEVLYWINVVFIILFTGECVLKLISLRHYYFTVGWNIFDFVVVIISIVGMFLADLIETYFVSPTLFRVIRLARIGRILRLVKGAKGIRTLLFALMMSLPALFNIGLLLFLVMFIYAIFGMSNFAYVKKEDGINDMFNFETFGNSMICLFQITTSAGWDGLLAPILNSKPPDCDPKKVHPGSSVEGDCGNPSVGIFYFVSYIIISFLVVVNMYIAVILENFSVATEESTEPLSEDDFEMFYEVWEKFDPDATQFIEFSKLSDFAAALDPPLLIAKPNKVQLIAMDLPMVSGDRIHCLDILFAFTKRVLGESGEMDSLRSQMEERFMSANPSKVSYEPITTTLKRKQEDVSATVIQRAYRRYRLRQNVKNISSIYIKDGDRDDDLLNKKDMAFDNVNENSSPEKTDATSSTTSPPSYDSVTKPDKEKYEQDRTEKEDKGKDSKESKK
Experiment: Nav 1.7 in vitro assay, IonWorks Quattro (IWQ) population patch-clamp
Assay type: cell-based
Conditions: HEK 293 cells stably transfected with Nav 1.7; 26th pulse to -20 mV
property-measured: pIC50
To interpret pIC50, take it as minus log10 of a concentration measured in moles per litre.

Completed entries (count: 3):
# compound, pIC50
data = [
    ("O=C(Oc1ccc([N+](=O)[O-])cc1)N1CCOc2cc(S(=O)(=O)Nc3nccs3)ccc21 [Example 197]", 5.60),
    ("O=S(=O)(Nc1ncns1)c1ccc2c(c1)OCCN2c1cccc2ccccc12 [Example 36]", 7.50),
    ("O=S(=O)(Nc1nccs1)c1ccc2c(c1)OCCN2c1ccc2c(c1)OC(F)(F)O2 [Example 127]", 6.32),
]

With Nav 1.7 (Homo sapiens (Human), UniProt Q15858) as the test system, O=S(=O)(Nc1nccs1)c1ccc2c(c1)OCCN2c1cccc2cccnc12 [Example 166, 2,2,2-Trifluoroacetate] showed pIC50 of 6.17

All values here come from patent US9346798B2.
